Please provide measured residual activity for the entries that follow.
Molecular target: AXL (human)
Assay: radiometric filter-binding kinase assay, Kinase HotSpot
Conditions: compound 0.5 µM; ATP 10 µM
Give bare numbers, in %.

{"Given smiles": "O=c1cc(N2CCOCC2)oc2c(-c3ccccc3)cccc12", "Measured endpoint": "residual activity", "Value reported": 110}
{"Given smiles": "N#C/C(=C1/Nc2ccccc2S1)c1ccnc(NCCc2cccnc2)n1", "Measured endpoint": "residual activity", "Value reported": 106}
{"Given smiles": "O=c1c(-c2ccc(F)cc2)c(-c2ccncc2)[nH]n1-c1ccc(Cl)cc1", "Measured endpoint": "residual activity", "Value reported": 113}
{"Given smiles": "COc1cc2c(cc1OC)-c1[nH]nc(Nc3cccc(F)c3)c1C2", "Measured endpoint": "residual activity", "Value reported": 96.1}

# evaluate next
Consider `CCc1nc(-c2ccc(OC)cc2)[nH]c1-c1ccncc1` . Its measured residual activity is 99.9

* * *

Target: SRMS (human)
Experiment: radiometric filter-binding kinase assay, Kinase HotSpot
Conditions: compound 0.5 µM; ATP 10 µM
Measured endpoint: residual activity (%)
Answers are plain numbers, in %.

Solved cases (3 shown):
{"Given smiles": "O=C(c1ccccc1)c1ccc(N2CCOCC2)cc1O", "Quantity unit": "%", "residual activity": 93.9}
{"Given smiles": "FC(F)(F)c1ccc(/C=C/c2nc(COc3ccc(CCCCn4ccnn4)cc3)co2)cc1", "Quantity unit": "%", "residual activity": 93.5}
{"Given smiles": "COc1cc2c(cc1OC)-c1[nH]nc(Nc3cccc(F)c3)c1C2", "Quantity unit": "%", "residual activity": 99.9}

Dear reader, for each entry below, please note its residual activity.
1. CCc1nc(-c2ccc(OC)cc2)[nH]c1-c1ccncc1
2. O=C1NC(=O)c2cc(Nc3ccc(F)cc3)c(Nc3ccc(F)cc3)cc21
3. COc1cc2c(Nc3ccc(Br)cc3F)ncnc2cc1OCC1CCN(C)CC1
4. O=c1c2ccccc2[nH]c(=S)n1CCN1CCC(=C(c2ccc(F)cc2)c2ccc(F)cc2)CC1
5. N#Cc1c(NC(=O)c2cccc3ccccc23)sc2c1CCCC2

Solution:
1: 106; 2: 95.5; 3: 98.8; 4: 96.7; 5: 106

For each listed entry, give its residual activity.
1. Cc1cc(Nc2nc(-c3ccccc3)nc3ccccc23)n[nH]1
2. COc1cc2ncnc(Nc3ccc(O)c(Br)c3)c2cc1OC
3. N/C(=N\N=C/c1ccc(-c2cccc([N+](=O)[O-])c2)o1)N[N+](=O)[O-]
4. O=c1cc(N2CCOCC2)oc2c(-c3ccccc3)cccc12
5. O=c1c(-c2ccc(F)cc2)c(-c2ccncc2)[nH]n1-c1ccc(Cl)cc1
6. O=c1[nH]c2ccccc2n1C1CCN(Cc2ccc(-c3nc4cc5[nH]cnc5cc4nc3-c3ccccc3)cc2)CC1
7. N#CCCc1ccc2c(c1)-c1[nH]c3ccc([N+](=O)[O-])cc3c1CC(=O)N2

Solution:
[98.7, 90.4, 90.2, 103, 104, 93.1, 78.6]

For every item in the list below, what is its measured residual activity?
1. CCCCc1c(-c2ccc(O)cc2)[nH]c2nccnc12
2. O=S(=O)(NCCNC/C=C/c1ccc(Br)cc1)c1cccc2cnccc12
3. O=C1NC(=O)c2c1c1c3ccccc3[nH]c1c1[nH]c3cc(Br)ccc3c21
4. CCOc1cc2ncnc(Nc3cccc(Br)c3)c2cc1OCC
5. c1ccc(-c2cnc(Nc3ccc(OCCN4CCCC4)cc3)s2)cc1

Solution:
1: 95.4; 2: 97.8; 3: 91.5; 4: 85.7; 5: 96.5
